What pEC50 was measured for each of the following?
biological target: UniProt:P21589; experiment: MDA-MB-231 Cell Based CD73 Activity Assay (DMEM); conditions: MDA-MB-231-GFP cells, DMEM medium with 10% human plasma, 200 uM AMP
Note on pEC50: it is the negative log10 of concentration, concentration in mol/L.

[ask] Tell me pEC50 reported for O=c1[nH]cc(-c2cc(-c3cnn(CCN4CCOCC4)c3)c3nccn3n2)c(=O)[nH]1
[reply] 6.37

[ask] Tell me pEC50 reported for CNC(=O)c1ccc(C2CCN(c3cc(-c4c[nH]c(=O)[nH]c4=O)nn4ccnc34)C2)cc1 (stereo not shown)
[reply] 7.86

[ask] Tell me pEC50 reported for O=c1[nH]cc(-c2cc([C@H]3C[C@@H]3c3ccc4cncc(OCC(F)(F)F)c4c3)c3nccn3n2)c(=O)[nH]1
[reply] 8.39

[ask] Tell me pEC50 reported for O=c1[nH]cc(-c2cc([C@H]3C[C@@H]3c3cnc(C(F)(F)F)nc3)c3nccn3n2)c(=O)[nH]1
[reply] 7.14

---

molecular target: CD73 (Homo sapiens (Human), UniProt P21589); test: MDA-MB-231 Cell Based CD73 Activity Assay (DMEM); settings: MDA-MB-231-GFP cells, DMEM medium with 10% human plasma, 200 uM AMP
Sequence (P21589 27-574): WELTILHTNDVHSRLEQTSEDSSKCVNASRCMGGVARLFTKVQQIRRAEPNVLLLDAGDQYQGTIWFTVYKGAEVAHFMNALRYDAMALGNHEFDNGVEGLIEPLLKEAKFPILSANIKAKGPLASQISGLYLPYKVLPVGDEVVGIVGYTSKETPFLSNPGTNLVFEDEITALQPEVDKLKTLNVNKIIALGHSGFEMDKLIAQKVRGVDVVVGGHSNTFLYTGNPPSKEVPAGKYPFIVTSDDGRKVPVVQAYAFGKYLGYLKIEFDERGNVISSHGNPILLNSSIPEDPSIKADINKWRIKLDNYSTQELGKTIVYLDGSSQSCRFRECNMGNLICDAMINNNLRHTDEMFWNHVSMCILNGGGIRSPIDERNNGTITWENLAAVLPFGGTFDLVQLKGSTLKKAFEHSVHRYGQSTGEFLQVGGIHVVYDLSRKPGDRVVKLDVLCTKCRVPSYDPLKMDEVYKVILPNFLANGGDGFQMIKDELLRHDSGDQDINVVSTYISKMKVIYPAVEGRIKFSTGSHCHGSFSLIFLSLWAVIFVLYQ
parameter: pEC50
Note on pEC50: it is the negative log10 of concentration, concentration in mol/L.

[ask] Tell me pEC50 reported for CC(C)NC(=O)OCC(F)(F)COc1cc(-c2c[nH]c(=O)[nH]c2=O)nn2ncnc12
[reply] 10.00

[ask] Tell me pEC50 reported for O=c1[nH]cc(-c2cc([C@H]3C[C@@H]3c3ncc(Cl)cc3F)c3ncc(F)n3n2)c(=O)[nH]1 [Example 588]
[reply] 8.63

[ask] Tell me pEC50 reported for COC1CN(c2cc(-c3c[nH]c(=O)[nH]c3=O)nn3ccnc23)CC12CC2 (stereo not shown)
[reply] 6.90

[ask] Tell me pEC50 reported for O=C1N(CC(F)(F)F)c2cc([C@H]3C[C@@H]3c3cc(-c4c[nH]c(=O)[nH]c4=O)nn4ccnc34)ccc2C12CCC2
[reply] 9.62

[ask] Tell me pEC50 reported for O=c1[nH]cc(-c2cc(N3CC(c4ccccc4)C(F)(F)C3)c3nccn3n2)c(=O)[nH]1 (stereo not shown)
[reply] 7.61

[ask] Tell me pEC50 reported for O=c1[nH]cc(-c2cc(N3CC4(C3)CC(F)(F)CO4)c3nccn3n2)c(=O)[nH]1
[reply] 6.33

[ask] Tell me pEC50 reported for O=c1[nH]cc(-c2cc([C@H]3C[C@@H]3c3ncc(Cl)cc3F)c3nccn3n2)c(=O)[nH]1
[reply] 8.53

---

target: CD73 (Homo sapiens (Human)); experiment: MDA-MB-231 Cell Based CD73 Activity Assay (DMEM); settings: MDA-MB-231-GFP cells, DMEM medium with 10% human plasma, 200 uM AMP
parameter: pEC50
Note on pEC50: it is the negative log10 of concentration, concentration in mol/L.

[ask] Tell me pEC50 reported for O=c1[nH]cc(-c2cc(N3CCC(F)(c4ccccc4)C3)c3nccn3n2)c(=O)[nH]1 (stereo not shown)
[reply] 6.80

[ask] Tell me pEC50 reported for CC(C)CNc1cc(-c2c[nH]c(=O)[nH]c2=O)nn2ccnc12
[reply] 6.38

[ask] Tell me pEC50 reported for CC(C)NC(=O)C(F)(F)C1CCN(c2cc(-c3c[nH]c(=O)[nH]c3=O)nn3ccnc23)C1 (stereo not shown)
[reply] 7.05

[ask] Tell me pEC50 reported for O=c1[nH]cc(-c2cc(N3CCC4CCC3C4)c3nccn3n2)c(=O)[nH]1 (stereo not shown)
[reply] 6.32

---

molecular target: CD73 (Homo sapiens (Human), UniProt P21589); assay: MDA-MB-231 Cell Based CD73 Activity Assay (DMEM); conditions: MDA-MB-231-GFP cells, DMEM medium with 10% human plasma, 200 uM AMP
What pEC50 was measured for each of the following?
Note on pEC50: it is the negative log10 of concentration, concentration in mol/L.

[ask] Tell me pEC50 reported for O=c1[nH]cc(-c2cc(N3C[C@@H](Oc4ncc(C(F)(F)F)cn4)C(F)(F)C3)c3nccn3n2)c(=O)[nH]1
[reply] 7.67

[ask] Tell me pEC50 reported for O=c1[nH]cc(-c2cc(N3CC(C(F)(F)F)C3)c3nccn3n2)c(=O)[nH]1
[reply] 7.49

[ask] Tell me pEC50 reported for CC1(C(F)F)CN(c2cc(-c3c[nH]c(=O)[nH]c3=O)nn3ccnc23)C1
[reply] 7.57

[ask] Tell me pEC50 reported for O=c1[nH]cc(-c2cc(N3C4CCC3CC4)c3nccn3n2)c(=O)[nH]1
[reply] 6.47

[ask] Tell me pEC50 reported for CC1(C)CN(c2cc(-c3c[nH]c(=O)[nH]c3=O)nn3c(F)cnc23)CC1(F)F
[reply] 8.09

[ask] Tell me pEC50 reported for O=c1[nH]cc(-c2cc(N3CCC(F)(F)CC3)c3nccn3n2)c(=O)[nH]1
[reply] 6.54

[ask] Tell me pEC50 reported for O=c1[nH]cc(-c2cc(N3CC4CC4(C(F)(F)F)C3)c3nccn3n2)c(=O)[nH]1 (centres unmarked)
[reply] 7.10

[ask] Tell me pEC50 reported for CC(C)(C)C#Cc1cc(-c2c[nH]c(=O)[nH]c2=O)nn2ccnc12
[reply] 6.54

---

biological target: CD73 (Homo sapiens (Human), UniProt P21589); assay type: biochemical; conditions: 1 mM NaH2PO4 in enzyme buffer, CD73 0.3 nM, AMP 15 uM
parameter: IC50 (nM)
Could you give me the number in nM? Just the number is fine.

[ask] Tell me IC50 reported for CNC(=O)c1ccc([C@H]2C[C@@H]2c2cc(-c3c[nH]c(=O)[nH]c3=O)nn3c(F)cnc23)cc1 (racemic)
[reply] 1.29

[ask] Tell me IC50 reported for O=c1[nH]cc(-c2cc([C@H]3C[C@@H]3c3ccc4ncccc4c3)c3nccn3n2)c(=O)[nH]1 (racemic)
[reply] 1.06

[ask] Tell me IC50 reported for O=c1[nH]cc(-c2cc(N3CC[C@@H](OC(F)(F)F)C3)c3ncnn3n2)c(=O)[nH]1
[reply] 2.22

[ask] Tell me IC50 reported for O=c1[nH]cc(-c2cc(C3CCOCC3)c3nccn3n2)c(=O)[nH]1
[reply] 817

[ask] Tell me IC50 reported for CC(C)NC(=O)CCC(F)(F)COc1cc(-c2c[nH]c(=O)[nH]c2=O)nn2ccnc12
[reply] 3.52

[ask] Tell me IC50 reported for O=c1[nH]cc(-c2cc(N3CC(F)(C(F)(F)F)C3)n3nccc3n2)c(=O)[nH]1
[reply] 108

[ask] Tell me IC50 reported for O=c1[nH]cc(-c2cc(N3CCC(CC(F)(F)F)C3)c3nccn3n2)c(=O)[nH]1 (racemic)
[reply] 95.3

[ask] Tell me IC50 reported for O=c1[nH]cc(-c2cc(N3CCCC3)c3nccn3n2)c(=O)[nH]1
[reply] 19.4

---

Biological target: CD73 (Homo sapiens (Human), UniProt P21589)
Experiment: CD73 Biochemical IC50 Assay
Conditions: CD73 0.3 nM, AMP 15 uM, 25 mM Tris pH 7.4, 5 mM MgCl2
Procedure: CD73 Biochemical IC50 Assay Compound serial dilutions were pre-spotted into Thermo Nunc assay plate. 50 μL CD73 enzyme buffer (CD73 purchased from R&D system=0.6 nM, 25 mM Tris, pH 7.4, 5 mM MgCl2) was added into the assay plate and incubated for 15 mins. […] The samples were run using Rapid fire.
parameter: pIC50
Note on pIC50: it is the negative log10 of concentration, concentration in mol/L.

[ask] Tell me pIC50 reported for CC1(C)CCN(c2cc(-c3c[nH]c(=O)[nH]c3=O)nn3ccnc23)C1
[reply] 7.58

[ask] Tell me pIC50 reported for O=c1[nH]cc(-c2cc([C@H]3C[C@@H]3c3ccc4c(c3)OC(F)(F)O4)c3nccn3n2)c(=O)[nH]1 (racemic)
[reply] 7.50

[ask] Tell me pIC50 reported for O=c1[nH]cc(-c2cc(N3CCC(F)(F)CC3)c3nccn3n2)c(=O)[nH]1
[reply] 6.66

[ask] Tell me pIC50 reported for O=c1[nH]cc(-c2cc([C@H]3C[C@@H]3c3cc(F)ccc3F)c3nccn3n2)c(=O)[nH]1 (racemic)
[reply] 7.88

[ask] Tell me pIC50 reported for O=c1[nH]cc(-c2cc([C@H]3C[C@@H]3c3ccc(F)c(Cl)c3)c3nccn3n2)c(=O)[nH]1 (racemic)
[reply] 7.72

---

target: CD73 (Homo sapiens (Human), UniProt P21589); test: MDA-MB-231 Cell Based CD73 Activity Assay; conditions: MDA-MB-231-GFP cells, RPMI medium with 10% human plasma, 200 uM AMP
pEC50: −log10 of the molar value.
Label YES when pEC50 is at or above 8; anything below gets NO.

[ask] Does the reported pEC50 for CC1(C)CCN(c2cc(-c3c[nH]c(=O)[nH]c3=O)nc3ncnn23)C1 fall at or above the 8 mark?
[reply] NO

[ask] Does the reported pEC50 for CC1(C)CCN(c2cc(-c3c[nH]c(=O)[nH]c3=O)nc3ccnn23)C1 fall at or above the 8 mark?
[reply] NO

[ask] Does the reported pEC50 for O=c1[nH]cc(-c2cc(N3CC(C(F)(F)F)C3)c3nccn3n2)c(=O)[nH]1 fall at or above the 8 mark?
[reply] NO

[ask] Does the reported pEC50 for N#Cc1ccc(C[C@H]2C[C@@H]2c2cc(-c3c[nH]c(=O)[nH]c3=O)nn3ccnc23)cc1 (racemic) fall at or above the 8 mark?
[reply] NO

[ask] Does the reported pEC50 for O=c1[nH]cc(-c2cc([C@H]3C[C@@H]3c3ccccn3)c3nccn3n2)c(=O)[nH]1 (racemic) fall at or above the 8 mark?
[reply] YES

[ask] Does the reported pEC50 for O=c1[nH]cc(-c2cc(OC3CC3)c3nccn3n2)c(=O)[nH]1 fall at or above the 8 mark?
[reply] NO

[ask] Does the reported pEC50 for COc1ccccc1[C@H]1C[C@@H]1c1cc(-c2c[nH]c(=O)[nH]c2=O)nn2ccnc12 (mixture of isomers) fall at or above the 8 mark?
[reply] YES

[ask] Does the reported pEC50 for O=c1[nH]cc(-c2cc(N3CCOCC3)c3nccn3n2)c(=O)[nH]1 fall at or above the 8 mark?
[reply] NO

[ask] Does the reported pEC50 for O=c1[nH]cc(-c2cc(COCc3ccccc3)c3nccn3n2)c(=O)[nH]1 fall at or above the 8 mark?
[reply] NO

[ask] Does the reported pEC50 for CC(C)c1cc(-c2c[nH]c(=O)[nH]c2=O)nn2cnnc12 fall at or above the 8 mark?
[reply] NO

[ask] Does the reported pEC50 for O=c1[nH]cc(-c2cc(C3CC3)c3nc(-c4ccccc4)cn3n2)c(=O)[nH]1 fall at or above the 8 mark?
[reply] NO

[ask] Does the reported pEC50 for CC(C)c1cc(-c2c[nH]c(=O)[nH]c2=O)nn2cc(C(F)(F)F)nc12 fall at or above the 8 mark?
[reply] NO

[ask] Does the reported pEC50 for O=c1[nH]cc(-c2cc([C@H]3C[C@@H]3c3ccc(F)cc3)c3ncc(F)n3n2)c(=O)[nH]1 (racemic) fall at or above the 8 mark?
[reply] YES

[ask] Does the reported pEC50 for N#Cc1cc([C@H]2C[C@@H]2c2cc(-c3c[nH]c(=O)[nH]c3=O)nn3ccnc23)ccc1F (mixture of isomers) fall at or above the 8 mark?
[reply] YES
